Kindly state IC50 for each of the entries shown.
Molecular target: wild type human RORγt LBD (Homo sapiens)
Construct: expressed in transfected cells; host or cells: HEK293T
Sequence (P51449 269-508 limits assumed): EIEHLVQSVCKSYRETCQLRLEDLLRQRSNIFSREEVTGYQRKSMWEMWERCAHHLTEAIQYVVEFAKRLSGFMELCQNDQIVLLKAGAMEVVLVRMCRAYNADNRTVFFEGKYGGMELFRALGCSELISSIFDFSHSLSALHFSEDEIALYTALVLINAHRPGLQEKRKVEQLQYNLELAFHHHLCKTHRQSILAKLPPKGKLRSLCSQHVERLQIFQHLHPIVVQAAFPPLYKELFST
Test: RORγt Reporter Assay (GAL4-RORγt LBD luciferase in HEK293T cells)
Type: cell-based
Conditions: HEK293T cells, compounds for 24 hours; read-out: RORγt reporter Assay, IC50
Return type: number; implicit unit nM.

Task: Would you mind telling me what IC50 value was observed for CCC(=O)NCCOc1nc2ccc(C(O)(c3ccc(Cl)cc3)c3cncn3C)cc2c(Cl)c1-c1ccccc1 (stereo not shown) ?
Result: 1100

Task: Would you mind telling me what IC50 value was observed for CSc1nc2ccc(C(O)(c3sc(C)nc3C)c3cncn3C)cc2c(SC)c1-c1ccccc1 (stereo not shown) ?
Result: 17
